tested on: CA-PS-Pool II; experiment: Scatchard analysis of labeled steroid binding to CA-PS-pool II; design: species or system horse; conditions: 3H-labeled steroid, 34° C.
parameter: CA-PS-Pool II Ka
Answer as a quantity: numeral, then unit.

Record excerpt, results attached:
compound: C[C@]12CCC(=O)C=C1CC[C@@H]1[C@@H]2[C@@H](O)C[C@@]2(C)[C@H]1CC[C@]2(O)C(=O)CO [cortisol, Hydrocortisone/Cortisol]
CA-PS-Pool II Ka: 530000 M⁻¹
--
compound: C[C@]12CC[C@@H]3c4ccc(O)cc4CC[C@H]3[C@@H]1CC[C@@H]2O [E2, 17β-estradiol]
CA-PS-Pool II Ka: 3.55e+07 M⁻¹
--
compound: CC(=O)[C@H]1CC[C@H]2[C@@H]3CCC4=CC(=O)CC[C@]4(C)[C@H]3CC[C@]12C
CA-PS-Pool II Ka: 117000 M⁻¹

Challenge: Could you share which CA-PS-Pool II Ka value was measured for C[C@]12CCC(=O)C[C@@H]1CC[C@@H]1[C@@H]2CC[C@]2(C)[C@@H](O)CC[C@@H]12 [DHT, Dihydrotestosterone] ?
Response given: 6.99e+07 M⁻¹
